Taken from patent US12685735B2.

assayedSystem: BRG-1 (Homo sapiens)
assayExplanation: ATPase catalytic activity assay of BRG-1 (ADP-Glo)
Assay type: biochemical
conditionDescription: ATPase catalytic activity, ADP-Glo; read-out: BRG1 Max % Inhibition
Listed here: items and their measured Emax.
measuredEndpoint: Emax

compound=O=C(CNC(=O)c1ccc2c(c1)S(=O)(=O)CCCC2)Nc1nc(-c2cccc(-c3ccncc3)c2)cs1 measuredendpoint=Emax observedvalue="> 95%"
compound="C[C@@H]1CN(c2cccc(-c3csc(NC(=O)CNC(=O)c4ccc5c(c4)[C@@](F)(C#N)COC5)n3)n2)C[C@H](C)O1 (single isomer, unassigned)" measuredendpoint=Emax observedvalue="> 95%"
compound=C[C@@H]1CN(c2cccc(-c3csc(NC(=O)CNC(=O)c4cccc([C@]5(C(F)F)CCOC5)c4)n3)c2)C[C@H](C)O1 measuredendpoint=Emax observedvalue="> 95%"
compound="C[C@@H]1CN(c2cccc(-c3csc(NC(=O)CNC(=O)c4ccc5c(c4)C(C)(C#N)CNC5)n3)c2)C[C@H](C)O1 (stereo in doubt) [Compound 287]" measuredendpoint=Emax observedvalue="> 95%"
compound=CC(C)(CN)c1cccc(C(=O)NCC(=O)Nc2nc(-c3cccc(-c4ccnc(C(F)(F)F)c4)c3)cs2)c1 measuredendpoint=Emax observedvalue="> 60%"
compound=Cc1cc(-c2cccc(-c3csc(NC(=O)CNC(=O)c4cccc(C(C)(C)CN)c4)n3)c2)cc(C)n1 measuredendpoint=Emax observedvalue="> 90%"
compound=Cc1cc(-c2cccc(-c3csc(NC(=O)CNC(=O)c4ccc5c(c4)[C@](C)(CO)CC5)n3)c2)nc(C)n1 measuredendpoint=Emax observedvalue="> 95%"

* * *

assayedSystem: BRG-1 (Homo sapiens, UniProt P51532)
Sequence (P51532 whole entry): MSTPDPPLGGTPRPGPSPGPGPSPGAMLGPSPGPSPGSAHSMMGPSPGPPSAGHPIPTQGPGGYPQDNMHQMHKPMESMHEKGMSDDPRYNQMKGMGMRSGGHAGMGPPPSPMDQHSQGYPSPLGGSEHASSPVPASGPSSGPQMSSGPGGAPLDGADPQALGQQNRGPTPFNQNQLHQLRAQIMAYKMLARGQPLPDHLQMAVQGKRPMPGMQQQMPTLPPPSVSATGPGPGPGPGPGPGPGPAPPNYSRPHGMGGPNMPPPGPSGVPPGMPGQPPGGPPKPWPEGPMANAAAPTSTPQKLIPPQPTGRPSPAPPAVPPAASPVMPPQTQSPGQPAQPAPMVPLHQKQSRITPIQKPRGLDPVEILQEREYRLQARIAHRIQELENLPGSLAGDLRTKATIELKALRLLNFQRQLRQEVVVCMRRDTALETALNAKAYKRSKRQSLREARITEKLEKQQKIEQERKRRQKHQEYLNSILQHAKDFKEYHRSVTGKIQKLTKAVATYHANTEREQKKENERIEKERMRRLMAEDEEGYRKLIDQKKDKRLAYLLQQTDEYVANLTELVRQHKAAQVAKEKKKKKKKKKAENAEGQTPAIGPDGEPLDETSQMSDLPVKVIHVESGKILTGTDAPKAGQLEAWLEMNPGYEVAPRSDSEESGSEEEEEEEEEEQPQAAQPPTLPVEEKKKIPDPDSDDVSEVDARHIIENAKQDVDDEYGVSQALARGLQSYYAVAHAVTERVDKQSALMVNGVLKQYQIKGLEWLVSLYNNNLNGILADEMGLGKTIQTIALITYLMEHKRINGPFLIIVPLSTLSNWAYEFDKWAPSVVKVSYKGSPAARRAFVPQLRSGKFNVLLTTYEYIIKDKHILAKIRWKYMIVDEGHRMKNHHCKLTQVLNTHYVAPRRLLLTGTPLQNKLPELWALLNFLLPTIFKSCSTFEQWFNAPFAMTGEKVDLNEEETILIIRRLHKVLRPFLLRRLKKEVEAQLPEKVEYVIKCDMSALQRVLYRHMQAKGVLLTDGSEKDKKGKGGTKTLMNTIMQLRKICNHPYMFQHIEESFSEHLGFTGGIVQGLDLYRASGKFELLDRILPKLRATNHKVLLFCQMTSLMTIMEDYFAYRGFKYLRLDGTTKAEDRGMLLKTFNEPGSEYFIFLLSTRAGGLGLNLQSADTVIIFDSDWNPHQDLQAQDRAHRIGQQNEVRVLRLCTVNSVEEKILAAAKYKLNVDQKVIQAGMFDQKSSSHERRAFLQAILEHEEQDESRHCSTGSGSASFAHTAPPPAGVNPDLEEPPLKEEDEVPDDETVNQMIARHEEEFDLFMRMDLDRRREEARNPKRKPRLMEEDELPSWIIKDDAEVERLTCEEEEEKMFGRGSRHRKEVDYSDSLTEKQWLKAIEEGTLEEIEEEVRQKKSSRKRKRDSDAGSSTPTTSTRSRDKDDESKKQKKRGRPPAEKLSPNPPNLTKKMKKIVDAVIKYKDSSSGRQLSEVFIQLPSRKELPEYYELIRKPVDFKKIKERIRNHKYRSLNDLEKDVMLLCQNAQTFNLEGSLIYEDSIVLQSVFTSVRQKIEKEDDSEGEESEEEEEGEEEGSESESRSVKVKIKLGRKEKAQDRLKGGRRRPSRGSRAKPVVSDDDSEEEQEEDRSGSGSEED
assayExplanation: ATPase catalytic activity assay of BRG-1 (ADP-Glo)
Assay type: biochemical
conditionDescription: ATPase catalytic activity, ADP-Glo; read-out: BRG1 Max % Inhibition
Listed here: items and their measured Emax.
measuredEndpoint: Emax

compound=COC[C@H](NC(=O)c1cccc(S(=O)(=O)C(C)C)c1)C(=O)Nc1nc(-c2cccc(-c3ccnc(C)c3)c2)cs1 observedvalue="> 80%"
compound="CSCC[C@H](NC(=O)c1ccc2c(c1)C(C)(O)C(=O)N2)C(=O)Nc1nc(-c2ccccc2)cs1 (stereo partly shown)" observedvalue="> 60%"
compound=C[C@@H]1CN(c2cccc(-c3csc(NC(=O)CNC(=O)c4cccc([C@]5(F)C[C@@](C)(O)C5)c4)n3)c2)C[C@H](C)O1 observedvalue="> 95%"
compound=C[C@@H]1CN(c2cccc(-c3csc(NC(=O)CNC(=O)c4ccc5c(c4)[C@@](C)(CO)CN5C)n3)c2)C[C@H](C)O1 observedvalue="> 80%"

* * *

assayedSystem: BRM (Homo sapiens, UniProt P51531)
Sequence (P51531 whole entry): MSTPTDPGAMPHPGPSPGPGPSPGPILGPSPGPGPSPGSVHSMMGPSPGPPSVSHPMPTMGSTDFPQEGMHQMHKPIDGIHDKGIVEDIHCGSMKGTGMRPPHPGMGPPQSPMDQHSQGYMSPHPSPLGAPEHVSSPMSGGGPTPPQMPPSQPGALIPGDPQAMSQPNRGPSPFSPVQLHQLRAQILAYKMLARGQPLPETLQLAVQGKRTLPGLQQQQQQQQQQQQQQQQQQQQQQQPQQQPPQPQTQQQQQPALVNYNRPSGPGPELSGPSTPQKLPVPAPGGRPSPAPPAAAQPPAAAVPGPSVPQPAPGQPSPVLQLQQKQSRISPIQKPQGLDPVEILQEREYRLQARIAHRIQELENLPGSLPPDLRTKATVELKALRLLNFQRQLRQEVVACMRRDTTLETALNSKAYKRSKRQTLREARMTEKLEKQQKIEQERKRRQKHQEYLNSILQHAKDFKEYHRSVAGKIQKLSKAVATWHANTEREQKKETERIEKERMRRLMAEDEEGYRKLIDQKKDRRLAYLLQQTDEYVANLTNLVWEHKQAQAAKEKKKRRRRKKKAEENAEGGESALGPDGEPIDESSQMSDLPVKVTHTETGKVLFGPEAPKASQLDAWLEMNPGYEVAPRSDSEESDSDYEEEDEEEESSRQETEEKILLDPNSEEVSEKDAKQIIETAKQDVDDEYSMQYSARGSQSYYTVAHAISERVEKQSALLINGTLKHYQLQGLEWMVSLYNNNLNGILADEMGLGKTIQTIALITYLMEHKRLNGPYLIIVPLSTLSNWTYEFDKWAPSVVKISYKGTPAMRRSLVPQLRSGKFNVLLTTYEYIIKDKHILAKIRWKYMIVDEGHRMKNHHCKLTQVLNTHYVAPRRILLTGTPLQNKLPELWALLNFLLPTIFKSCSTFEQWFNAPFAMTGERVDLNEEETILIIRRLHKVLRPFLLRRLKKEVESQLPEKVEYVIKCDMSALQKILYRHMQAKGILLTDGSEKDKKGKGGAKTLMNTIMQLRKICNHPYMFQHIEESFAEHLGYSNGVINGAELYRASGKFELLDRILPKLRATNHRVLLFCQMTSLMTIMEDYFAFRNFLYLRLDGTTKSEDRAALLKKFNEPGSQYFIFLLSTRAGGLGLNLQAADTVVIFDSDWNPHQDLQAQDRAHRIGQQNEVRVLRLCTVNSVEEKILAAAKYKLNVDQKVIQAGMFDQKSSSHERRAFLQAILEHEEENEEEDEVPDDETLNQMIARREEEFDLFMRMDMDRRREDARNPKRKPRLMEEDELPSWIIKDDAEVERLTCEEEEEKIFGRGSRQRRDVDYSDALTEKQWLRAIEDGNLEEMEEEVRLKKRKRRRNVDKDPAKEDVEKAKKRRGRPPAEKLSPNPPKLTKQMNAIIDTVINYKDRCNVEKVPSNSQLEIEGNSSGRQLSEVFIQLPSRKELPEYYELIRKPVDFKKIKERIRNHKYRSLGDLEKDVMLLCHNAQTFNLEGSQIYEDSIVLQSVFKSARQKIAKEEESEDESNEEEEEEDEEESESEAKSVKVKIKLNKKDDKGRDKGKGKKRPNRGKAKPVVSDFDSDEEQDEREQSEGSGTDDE
assayExplanation: ATPase catalytic activity assay of BRM (ADP-Glo)
Type: biochemical
Listed here: items and their measured BRM Max % Inhibition.
measuredEndpoint: BRM Max % Inhibition

compound="C[C@@H](CO)S(=O)(=O)c1cccc(C(=O)NCC(=O)Nc2nc(-c3cccc(-c4ccncc4)c3)cs2)c1 [Compound 115]" measuredendpoint="BRM Max % Inhibition" observedvalue=>95%
compound="C[C@@H]1CN(c2cccc(-c3csc(NC(=O)CNC(=O)c4cccc([C@]5(C)COC[C@H]5O)c4)n3)n2)C[C@H](C)O1 [Compound 408]" measuredendpoint="BRM Max % Inhibition" observedvalue=>90%
compound="O=C(CNC(=O)c1ccc2c(c1)[C@](F)(C(F)F)COC2)Nc1nc(-c2cc(F)cc(N3CCC3)c2)cs1 [Compound 276]" measuredendpoint="BRM Max % Inhibition" observedvalue=>95%
compound="COc1cccc(-c2csc(NC(=O)CNC(=O)c3ccc4c(c3)[C@](C)(C#N)COC4)n2)c1 [Compound 401]" measuredendpoint="BRM Max % Inhibition" observedvalue=>95%
compound="Cc1cc(-c2cccc(-c3csc(NC(=O)CNC(=O)c4ccc5c(c4)[C@@](C)(CO)CCC5)n3)c2)cc(C)n1 [Compound 231]" measuredendpoint="BRM Max % Inhibition" observedvalue=>95%
compound="C[C@@H](N)C(C)(C)c1cccc(C(=O)NCC(=O)Nc2nc(-c3cccc(-c4ccncc4)c3)cs2)c1 [Compound 109]" measuredendpoint="BRM Max % Inhibition" observedvalue=>80%
compound="CC(C)S(=O)(=O)c1cccc(C(=O)NCC(=O)Nc2nc(-c3cccc(-c4cc(C#N)cc(CO)c4)c3)cs2)c1 [Compound 23]" measuredendpoint="BRM Max % Inhibition" observedvalue=>90%
compound="C[C@@H]1CN(c2cccc(-c3csc(NC(=O)CNC(=O)c4ccc5c(c4)[C@H](C#N)CCO5)n3)n2)C[C@H](C)O1 (racemic) [Compound 405]" measuredendpoint="BRM Max % Inhibition" observedvalue=>90%
compound="C[C@@H]1CN(c2cccc(-c3csc(NC(=O)CNC(=O)c4cnc5c(c4)[C@@](C)(CO)CC5)n3)c2)C[C@H](C)O1 [Compound 144]" measuredendpoint="BRM Max % Inhibition" observedvalue=>95%
compound="C[C@H](CO)S(=O)(=O)c1cccc(C(=O)NCC(=O)Nc2nc(-c3cccc(-c4ccncc4)c3)cs2)c1 [Compound 116]" measuredendpoint="BRM Max % Inhibition" observedvalue=>80%
compound="C[C@@H]1CN(c2cc(-c3csc(NC(=O)CNC(=O)c4ccc5c(c4)[C@](C)(C#N)COC5)n3)ccn2)C[C@H](C)O1 [Compound 347]" measuredendpoint="BRM Max % Inhibition" observedvalue=>95%
compound="C[C@@]1(CO)CCc2ccc(C(=O)NCC(=O)Nc3nc(-c4cccc(-c5cccnc5O)n4)cs3)cc21 [Compound 264]" measuredendpoint="BRM Max % Inhibition" observedvalue=>70%
compound="CC1(C#N)CCc2ccc(C(=O)NCC(=O)Nc3nc(-c4cccc(-c5ccncc5)c4)cs3)cc21 (stereo not drawn) [Compound 76]" measuredendpoint="BRM Max % Inhibition" observedvalue=>95%
compound="COc1cccc(-c2csc(NC(=O)CNC(=O)c3cc(F)c4c(c3)[C@@](C)(C#N)COC4)n2)c1 [Compound 269]" measuredendpoint="BRM Max % Inhibition" observedvalue=>90%
compound="Cn1cc(-c2cccc(-c3csc(NC(=O)CNC(=O)c4cccc(C(C)(C)CO)c4)n3)c2)cn1 [Compound 104]" measuredendpoint="BRM Max % Inhibition" observedvalue=>90%
compound="Cc1cc(C(=O)NCC(=O)Nc2nc(-c3cccc(-c4ccncc4)c3)cs2)cc(C(C)(C)C#N)c1C [Compound 75]" measuredendpoint="BRM Max % Inhibition" observedvalue=>80%
compound="Cc1nccc(-c2cccc(-c3csc(NC(=O)CNC(=O)c4ccc5c(c4)[C@@](C)(CO)CCC5)n3)n2)n1 [Compound 211]" measuredendpoint="BRM Max % Inhibition" observedvalue=>80%
compound="Cc1cc(-c2cccc(-c3csc(NC(=O)CNC(=O)c4ccc5c(c4)[C@@](C)(C#N)CC5)n3)n2)ncn1 [Compound 266]" measuredendpoint="BRM Max % Inhibition" observedvalue=>60%
compound="C[C@@]1(C#N)COCc2ccc(C(=O)NCC(=O)Nc3nc(-c4cccc([C@]56CCOC[C@H]5C6)n4)cs3)cc21 [Compound 293]" measuredendpoint="BRM Max % Inhibition" observedvalue=>95%
compound="C[C@@H]1CN(c2cccc(-c3csc(NC(=O)CNC(=O)c4cccc(C5(CO)CC5)c4)n3)n2)C[C@H](C)O1 [Compound 182]" measuredendpoint="BRM Max % Inhibition" observedvalue=>95%
compound="COC[C@H](NC(=O)c1cccc(C(C)(C)CN)c1)C(=O)Nc1nc(-c2cccc(-c3ccnc(C)c3)c2)cs1 [Compound 68]" measuredendpoint="BRM Max % Inhibition" observedvalue=>95%
compound="CCC(C)(O)c1cccc(C(=O)NCC(=O)Nc2nc(-c3cccc(-c4ccncc4)c3)cs2)c1 (single isomer, unassigned) [Compound 81]" measuredendpoint="BRM Max % Inhibition" observedvalue=>90%
compound="CC(C)(CN)c1cccc(C(=O)NCC(=O)Nc2nc(-c3cccc(-c4ccncc4)c3)cs2)c1 [Compound 64]" measuredendpoint="BRM Max % Inhibition" observedvalue=>95%
compound="CC(C)S(=O)(=O)c1cccc(C(=O)NCC(=O)Nc2nc(-c3cccc(-c4cccc(C#N)c4)c3)cs2)c1 [Compound 24]" measuredendpoint="BRM Max % Inhibition" observedvalue=>90%

* * *

Listed here: items and their measured BRM Max % Inhibition.
assayedSystem: BRM (Homo sapiens, UniProt P51531)
assayExplanation: ATPase catalytic activity assay of BRM (ADP-Glo)
Type: biochemical
measuredEndpoint: BRM Max % Inhibition

compound="CN1C[C@](C)(C#N)c2cc(C(=O)NCC(=O)Nc3nc(-c4cc(F)cc(N5CCC5)c4)cs3)ccc21 [Compound 288]" assayedsystem="BRM (Homo sapiens, UniProt P51531)" measuredendpoint="BRM Max % Inhibition" observedvalue=>75%
compound="C[C@@H]1CN(c2cccc(-c3csc(NC(=O)CNC(=O)c4ccc5c(c4)[C@@](C)(F)COC5)n3)n2)C[C@H](C)O1 [Compound 412]" assayedsystem="BRM (Homo sapiens, UniProt P51531)" measuredendpoint="BRM Max % Inhibition" observedvalue=>90%
compound="COc1cc(-c2cccc(-c3csc(NC(=O)CNC(=O)c4cccc(S(=O)(=O)C(C)C)c4)n3)c2)nc(C)n1 [Compound 123]" assayedsystem="BRM (Homo sapiens, UniProt P51531)" measuredendpoint="BRM Max % Inhibition" observedvalue=>95%
